Hi there, I'd appreciate the recorded cell viability for every entry that follows.
# System: NOMO1
# experimentalProtocol: cell viability relative to DMSO control; higher = less cytotoxic
# conditionNotes: RPMI 5 mM glucose + 10% FBS; 48 h; 0.00702 µM
Report only the number, with the unit % understood.

Requested read-out: cell viability. Entry: C[C@@H]1COCCN1c1cc(C2([S@+](C)(=N)[O-])CC2)nc(-c2ccnc3[nH]ccc23)n1
114

Try the compound COC(=O)Nc1cc(Nc2cc(NC3CC3)c3ncc(C#N)n3n2)c(Cl)c(N2CCN(C)CC2)c1
108

Try the compound C[C@H]1C[C@@H]2[C@H](CC[C@@]3(C)[C@H]2CC[C@]3(OC(C)=O)C(C)=O)[C@@]\4(C)CCC(=O)\C=C14
103

Try the compound CC(C)OC(=O)/C1=C/N(CC(C)(C)C2=C1[NH]C3=CC=CC=C23)C(=O)C4=CC=C(F)C(=C4)F
79.7

Try the compound Cn1cnc2c(F)c(Nc3ccc(Br)cc3F)c(C(=O)NOCCO)cc21
82.4

Try the compound COc1ccc(-c2ccc3ncc4c(c3c2)n(-c2ccc(N3CCNCC3)c(C(F)(F)F)c2)c(=O)n4C)cn1
90.4

Try the compound C[C@@H](Oc1cc(-c2cnn(C3CCNCC3)c2)cnc1N)c1c(Cl)ccc(F)c1Cl
113

Try the compound c1ccc(CCCN2CCN(CCOC(c3ccccc3)c3ccccc3)CC2)cc1
96

Try the compound OC[C@@H](O)[C@@H](O)[C@H](O)[C@@H](O)CO
108

Try the compound Cc1ccccc1C(=O)c1ccc(Nc2ccc(Br)cc2N)cc1Cl
116

Try the compound O=C(Nc1cccc(C(F)(F)F)c1)Nc1cc([S+](=O)([O-])NC2CC2)ccc1-c1ccsc1
102

Try the compound CCOC(=O)[C@@H](N)Cc1ccc(-c2cc(O[C@H](c3ccc(Cl)cc3-n3ccc(C)n3)C(F)(F)F)nc(N)n2)cc1.O=C(O)CNC(=O)c1ccccc1
109

Try the compound CC(C)(C#N)c1cc(Cn2cncn2)cc(C(C)(C)C#N)c1
102

Try the compound C[C@](Cc1c[nH]c2ccccc12)(NC(=O)OC1C2CC3CC(C2)CC1C3)C(=O)NC[C@H](NC(=O)CCC(=O)O)c1ccccc1 (stereo partly drawn)
120

Try the compound O=c1[nH]c(=O)n([C@H]2C[C@H](O)[C@@H](CO)O2)cc1/C=C/Br
97.7

Try the compound C[C@]12COC(=O)C[C@@H]1CC[C@@H]1[C@@H]2CC[C@@]2(C)[C@H]1CC[C@]2(C)O
86.4

Try the compound COc1cc(F)c(F)c(Nc2ccc(I)cc2F)c1N[S+](=O)([O-])C1(C[C@H](O)CO)CC1
94.9

Try the compound CCN1CCN(c2ccc(Nc3cc(N(C)C(=O)Nc4c(Cl)c(OC)cc(OC)c4Cl)ncn3)cc2)CC1
114
